Every entry's value here was drawn from patent US20200071424A1.

Target: T1, human [1-305]-mouse chimeric EL (human; mouse, UniProt Q9WVG5 306-500)
T1 sequence: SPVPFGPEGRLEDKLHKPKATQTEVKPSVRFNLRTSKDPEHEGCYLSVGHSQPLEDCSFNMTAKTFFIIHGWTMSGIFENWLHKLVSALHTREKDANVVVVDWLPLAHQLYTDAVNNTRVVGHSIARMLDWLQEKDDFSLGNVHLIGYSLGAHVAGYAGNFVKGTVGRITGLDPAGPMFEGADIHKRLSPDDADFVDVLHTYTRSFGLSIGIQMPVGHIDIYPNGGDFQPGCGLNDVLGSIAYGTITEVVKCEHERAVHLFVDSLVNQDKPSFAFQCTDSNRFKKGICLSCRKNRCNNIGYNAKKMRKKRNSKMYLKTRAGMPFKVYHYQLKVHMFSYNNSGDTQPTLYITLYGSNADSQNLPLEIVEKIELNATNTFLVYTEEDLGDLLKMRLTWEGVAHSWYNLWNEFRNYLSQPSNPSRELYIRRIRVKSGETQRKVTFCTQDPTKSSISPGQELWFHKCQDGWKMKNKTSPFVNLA
Experiment: cell-based or functional assay
Reported Neutralizing activity IC50 values follow for various binders

Study these solved cases before continuing.
53A11 (antibody, mouse IgG2a, V domains shown, mouse IgG2a from hybridoma; also called 53A11 (mouse mAb)) VH: EVQLQQSGPELLKPGASVKISCKASGYTFTDYTMHWVKQSHGKSLEWIGGINPYYGGTTYNEKFKDKATLTVDKSSSTAYMELRSLTSEDSAVYYCAKGDYYGGSYNYWGQGTTLTVSS VL: DIVLTQSLATLSVTPGDSVSLSCRASQDISNSLHWYQQKSHESPRLLIKYASQSISGIPSRFSGSGSGTDFTLSINSVETEDFGMYFCQQSNSWPYTFGGGTKLEIK :: 2.6 nM
h13B3-S2 (antibody, V domains shown) VH: QVQLVQSGAEVKKPGASVKVSCKASGYTFTEYTMHWVRQAPGQGLEWMGSINPYYGGTSYNEKFKDRVTSTRDTSISTAYMELSRLRSDDTVVYYCARYGNYVGYFDYWGQGTTVTVSS VL: EIVLTQSPGTLSLSPGERATLSCRASSSVHYMYWYQQKPGQAPRLLIYYTSNLAPGIPDRFSGSGSGTDFTLTISRLEPEDFAVYYCQQFTSSPYTFGGGTKVEIK :: 9 nM
h55A1-S6 (antibody, V domains shown, humanized) VH: QVQLVQSGSELKKPGASVKVSCKASGYTFTNYALNWVRQAPGQGLEWMGWINTYSGVGTYAGEFKGRFVFSLDTSVSTAYLQISSLKAEDTAVYYCARRGFYGRRFFDVWGKGTTVTVSS VL: DIVLTQSPASLAVSPGQRATITCKASQSVDYDVDSYMHWYQQKPGQPPKLLIYAASNLASGVPARFSGSGSGTDFTLTINPVEANDTANYYCQQTIEDPPTFGGGTKVEIK :: 1.2 nM
h53A11-S2 (antibody, V domains shown) VH: QVQLVQSGAEVKKPGASVKVSCKASGYTFTDYTMHWVRQAPGQRLEWMGGINPYYGGTTYNEKFKDRVTITRDTSASTAYMELSSLRSEDTAVYYCAKGDYYGGSYNYWGQGTTVTVSS VL: EIVMTQSLATLSVSPGERATLSCRASQDISNSLHWYQQKPGQAPRLLIYYASQSISGIPARFSGSGSGTEFTLTISSLQSEDFAVYYCQQSNSWPYTFGQGTKLEIK :: 2.7 nM

Consider h13B3-S3 (antibody, V domains shown) VH: QVQLVQSGAEVKKPGASVKVSCKASGYTFTEYTMHWVRQAPGQGLEWMGSINPYYGGTSYNEKFKDRVTMTRDTSTSTVYMELSSLRSEDTAVYYCARYGNYVGYFDYWGQGTTVTVSS VL: EIVLTQSPATLSLSPGERATLSCRASSSVHYMYWYQQKPGQAPRLLIYYTSNLAPGIPARFSGSGSGTDFTLTISSLEPEDFAVYYCQQFTSSPYTFGGGTKVEIK . Its measured Neutralizing activity IC50 is 2.1 nM
